Each record here notes measured growth.
System: NCI-H522 lung
Test: NCI-60 one-dose screen, 48 h (100 = growth as untreated, 0 = no growth, -100 = all killed)
Conditions: 10 µM unless noted
About 83,000 compounds went through this panel and 20% of them were active in at least one assay; those are over-represented in the sample as a whole.
Report as a plain number; the unit % is understood.

Known results for compounds:
compound: CCCCCCCCOC(=O)CCN1CC1
recorded result: 121

compound: N#C[Se]Cc1cc(-c2ccccc2)n(-c2ccc(S(N)(=O)=O)cc2)n1
recorded result: -7.38

compound: CC(=O)[C@H]1CC[C@H]2[C@@H]3CC[C@H]4C[C@H](N)CC[C@]4(C)[C@H]3CC[C@]12C
recorded result: 77.3

compound: ClCCN(CCCl)c1nc(Cl)c(C2CC(c3ccccc3)=NN2c2cc(Cl)cc(Cl)c2)s1 (stereo not given)
recorded result: 97.6

Moving on to another compound below.
Look up growth for this compound: O=[N+]([O-])c1ccc([Se]C2CCCCC2Cl)c([N+](=O)[O-])c1 (stereo not given) 63.3
